systemTested: Human AHR (Homo sapiens, UniProt P35869)
Sequence (P35869 11-848): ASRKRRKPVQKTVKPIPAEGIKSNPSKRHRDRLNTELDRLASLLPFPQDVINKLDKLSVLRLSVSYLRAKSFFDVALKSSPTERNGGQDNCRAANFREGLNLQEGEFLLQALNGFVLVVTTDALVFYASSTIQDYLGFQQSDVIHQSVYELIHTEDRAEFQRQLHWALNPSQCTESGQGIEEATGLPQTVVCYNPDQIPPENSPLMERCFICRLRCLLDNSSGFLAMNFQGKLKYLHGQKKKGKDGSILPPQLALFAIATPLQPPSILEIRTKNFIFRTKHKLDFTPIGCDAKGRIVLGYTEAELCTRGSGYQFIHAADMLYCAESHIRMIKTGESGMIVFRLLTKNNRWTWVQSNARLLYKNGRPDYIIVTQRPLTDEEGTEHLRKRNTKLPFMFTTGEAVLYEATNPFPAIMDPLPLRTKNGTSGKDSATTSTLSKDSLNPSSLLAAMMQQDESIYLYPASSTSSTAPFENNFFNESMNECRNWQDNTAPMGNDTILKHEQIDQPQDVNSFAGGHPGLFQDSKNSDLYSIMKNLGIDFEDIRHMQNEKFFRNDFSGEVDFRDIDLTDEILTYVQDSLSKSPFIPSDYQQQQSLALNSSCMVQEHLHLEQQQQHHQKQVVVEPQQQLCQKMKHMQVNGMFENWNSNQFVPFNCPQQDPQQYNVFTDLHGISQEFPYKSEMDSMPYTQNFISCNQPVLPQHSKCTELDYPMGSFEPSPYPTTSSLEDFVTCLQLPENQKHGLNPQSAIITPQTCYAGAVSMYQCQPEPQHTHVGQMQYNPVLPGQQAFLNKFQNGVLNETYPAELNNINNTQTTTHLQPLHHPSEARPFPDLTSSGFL
testDetails: hAHR Nuclear Translocation Assay
assaySetup: Jump-In T-REx HEK293 cells expressing AhR-EGFP chimera; 45 minutes incubation; ratio of EGFP fluorescent intensity in nuclear over cytosol; 20-point curve
Structures can show the parent of a compound that is named as a salt.
Mark each entry 1 (yes) if its EC50 sits below 6 nM, and 0 (no) for all others.

Recorded results for 3 molecules are shown here.
molecule=COc1cnc(NC(=O)c2cc3ccccc3n(C)c2=O)cn1 group="1 (yes)"
molecule=O=C(Nc1ccc(C(F)(F)F)cc1)c1cc2cccc3c2n(c1=O)CC3 group="1 (yes)"
molecule=COc1ccc(NC(=O)c2cc3ccccc3n(C)c2=O)cc1 group="1 (yes)"

// query Report whether reported EC50 is lower than 6 nM (strictly) for `COc1ccc(NC(=O)c2cc3ccccc3n(C)c2=O)cc1OC`
// result 1 (yes)

// query Report whether reported EC50 is lower than 6 nM (strictly) for Cn1cc(NC(=O)c2cc3ccccc3n(C)c2=O)cn1 [Example 27, hydrochloride]
// result 0 (no)

// query Report whether reported EC50 is lower than 6 nM (strictly) for `Cn1c(=O)c(C(=O)Nc2cccc(F)c2)cc2ccccc21`
// result 1 (yes)

// query Report whether reported EC50 is lower than 6 nM (strictly) for `COc1ccc(NC(=O)c2cc3ccc(Br)cc3n(C)c2=O)cc1`
// result 1 (yes)

// query Report whether reported EC50 is lower than 6 nM (strictly) for `COc1ccc(NC(=O)c2cc3ccc(N(C)C)cc3n(C)c2=O)cc1`
// result 0 (no)

// query Report whether reported EC50 is lower than 6 nM (strictly) for `Cn1c(=O)c(C(=O)Nc2ccccn2)cc2ccccc21`
// result 1 (yes)

// query Report whether reported EC50 is lower than 6 nM (strictly) for `Cn1c(=O)c(C(=O)Nc2ccccn2)cc2cc(OCCO)ccc21`
// result 0 (no)

====

systemTested: Human AHR (Homo sapiens)
testDetails: hAHR Nuclear Translocation Assay
assaySetup: Jump-In T-REx HEK293 cells expressing AhR-EGFP chimera; 45 minutes incubation; ratio of EGFP fluorescent intensity in nuclear over cytosol; 20-point curve
From the text: Stable cell lines were established using Jump-In™ T-REx™ HEK293 Retargeting Kit (Life Technologies). Human AHR cDNA was cloned into the pJTI R4 CMV-TO EGFP vector. The EGFP was cloned to the C-terminal of AHR to form AhR-EGFP chimera. The pJTI R4 CMV-TO AhR-EGFP vector was transfected using FuGENE® HD into Jump-In™ T-REx™ HEK293 cells. […] The intensity of EGFP was quantitated by using OPERA PHENIX® or Operetta™ high content image system (Perkin Elmer) with 20× Water Objective and five field per well. […]
Quick list: log10 of EC50 per entry.
// units: nM (pre-log); metric: EC50; scale: log10

Below, each entry is followed by its recorded log10 of EC50 result.
compound=Cc1ccnc(NC(=O)c2cc3ccccc3n(C)c2=O)c1 measuredmetric="log10 of EC50" reading=0.79
compound=Cn1c(=O)c(C(=O)Nc2ccccc2)cc2cc(NCCO)ccc21 measuredmetric="log10 of EC50" reading=0.78
compound=O=C(Nc1ccccn1)c1cc2cccc3c2n(c1=O)CC3 measuredmetric="log10 of EC50" reading=0.60
compound=COc1cccc(NC(=O)c2cc3ccccc3n(C)c2=O)n1 measuredmetric="log10 of EC50" reading=1.03
compound=CN(C)CCNc1cccc2c1cc(C(=O)Nc1ncc(C(F)(F)F)cn1)c(=O)n2C measuredmetric="log10 of EC50" reading=1.26

// query What value of log10 of EC50 has been reported for the following compound? `Cn1c(=O)c(C(=O)Nc2ccccc2)cc2ccc(Br)cc21`
// result -0.08

// query What value of log10 of EC50 has been reported for the following compound? `O=C(Nc1ccc(F)cc1)c1cc2cccc3c2n(c1=O)CC3`
// result -0.29

// query What value of log10 of EC50 has been reported for the following compound? `Cn1c(=O)c(C(=O)Nc2ccccc2)cc2c(NCCO)cccc21`
// result 0.28

// query What value of log10 of EC50 has been reported for the following compound? `CN(C)CCNc1cccc2cc(C(=O)Nc3ccccc3)c(=O)n(C)c12`
// result 1.43

// query What value of log10 of EC50 has been reported for the following compound? `Cn1c(=O)c(C(=O)Nc2ccc(C#N)nc2)cc2ccccc21`
// result 0.87

// query What value of log10 of EC50 has been reported for the following compound? `Cn1c(=O)c(C(=O)Nc2ccccc2)cc2ccc(OCCO)cc21`
// result 1.21

// query What value of log10 of EC50 has been reported for the following compound? `COc1ccc(NC(=O)c2cc3cccnc3n(C)c2=O)cc1`
// result 0.36

// query What value of log10 of EC50 has been reported for the following compound? CO[C@H]1CC[C@@H](NC(=O)c2cc3cccc4c3n(c2=O)CC4)C1 (relative stereo)
// result 1.73

Source: patent US12479822B2
